Target: recombinant human CD3ε/δ heterodimer (human) (UniProt P07766)
Sequence (P07766 23-126, stated change not applied, chain 1 of 2): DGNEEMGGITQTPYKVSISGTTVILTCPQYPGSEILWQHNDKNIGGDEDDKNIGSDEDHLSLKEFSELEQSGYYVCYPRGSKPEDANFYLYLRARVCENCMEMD
Sequence (P04234 22-105, stated change not applied, chain 2 of 2, further chain): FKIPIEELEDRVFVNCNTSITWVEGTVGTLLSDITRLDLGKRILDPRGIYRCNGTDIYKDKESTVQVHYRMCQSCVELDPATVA
Experiment: ELISA, coated CD3ε/δ
quantityMeasured: Absorbance (450 nm)
Enter a number only.

1) E09 (antibody, human IgG1, lambda, L234A L235A, V domains shown) VH: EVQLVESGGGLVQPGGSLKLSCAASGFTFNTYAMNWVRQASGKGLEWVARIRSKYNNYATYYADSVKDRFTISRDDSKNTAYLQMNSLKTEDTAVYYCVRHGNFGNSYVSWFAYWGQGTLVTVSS VL: QAVVTQEPSLTVSPGGTVTLTCRSSTGAVTTSNYANWVQQKPGQAPRTLIYGTNKRAPWTPARFSGSLLGGKAALTLSGAQPEDEAEYYCALWYSNLWVFGGGTKLTVLG = 0.096
2) D02 (antibody, human IgG1, lambda, L234A L235A, V domains shown) VH: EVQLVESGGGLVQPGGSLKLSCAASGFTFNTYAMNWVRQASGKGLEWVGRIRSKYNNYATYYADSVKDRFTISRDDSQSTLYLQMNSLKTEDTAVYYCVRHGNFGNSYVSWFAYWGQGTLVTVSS VL: QAVVTQEPSLTVSPGGTVTLTCRSSTGAVTTSNYANWFQQKPGQAPRTLIYGTNKRAPWTPARFSGSLLGDKAALTLSGAQPEDEAEYYCALWYSNLWVFGGGTKLTVLG = 0.15

Turning to the following binder.
State the recorded Absorbance (450 nm) for this entry: F02 (antibody, human IgG1, lambda, L234A L235A, V domains shown) VH: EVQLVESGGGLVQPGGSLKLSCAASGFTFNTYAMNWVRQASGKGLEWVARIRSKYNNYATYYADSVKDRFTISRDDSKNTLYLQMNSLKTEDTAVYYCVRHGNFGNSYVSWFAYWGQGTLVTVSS VL: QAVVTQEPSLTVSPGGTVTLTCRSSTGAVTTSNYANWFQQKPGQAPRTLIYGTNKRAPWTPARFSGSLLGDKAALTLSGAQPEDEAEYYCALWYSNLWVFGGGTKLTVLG
0.093
